So I've got a bunch of binders here, and I need their IC50 values.
# Target Of Assay: HLA-A*6801 (human)
# Procedure Summary: inhibition of 125I probe peptide binding to purified HLA
Give bare numbers, in nM.

Reference set, count: 2
Binder | Property Name | Units Text | Observed
VVFGILIKR (synthetic peptide; the 9-mer and the 10-mer carry the same source label Her2/neu.669) [Her2/neu.669 (AA 9)] | IC50 | nM | 4
ISWLGLRSLR (synthetic peptide) [Her2/neu.450] | IC50 | nM | 73

State recorded IC50 for all listed binders.
1. ILWKDIFHK (synthetic peptide) [Her2/neu.167]
2. IVKGGVLIQK (synthetic analog peptide) [Her2/neu.148.V2K10]

[1740, 27]
